target: DRB5*0101 molecules (Homo sapiens, UniProt P01903+Q30154); test: Inhibition of radiolabeled TT
Residues, ends and D or L forms follow the SMILES beside them.
measure: pIC50
Friendly reminder that pIC50 comes from taking -log10 of the concentration in mol/L.

State pIC50 on DRB5*0101 molecules (Homo sapiens, UniProt P01903+Q30154). Entry: CC[C@H](C)[C@H](NC(=O)[C@H](CC(N)=O)NC(=O)[C@H](CCCCN)NC(=O)[C@H](Cc1ccccc1)NC(=O)[C@H](Cc1ccccc1)NC(=O)[C@H](C)NC(=O)[C@@H](NC(=O)[C@@H](NC(=O)[C@@H]1CCCN1C(=O)[C@H](CC(N)=O)NC(=O)[C@@H](N)CCC(=O)O)C(C)C)C(C)C)C(=O)N[C@H](C(=O)N[C@H](C(=O)N1CCC[C@H]1C(=O)N[C@@H](CCCNC(=N)N)C(=O)O)[C@@H](C)O)C(C)C [(85-99)90A] (H-ENPVVAFFKNIVTPR-OH)
6.19

Please report pIC50 with DRB5*0101 molecules (Homo sapiens, UniProt P01903+Q30154) for item CC[C@H](C)[C@H](NC(=O)[C@H](CC(N)=O)NC(=O)[C@H](CCCCN)NC(=O)[C@H](C)NC(=O)[C@H](Cc1ccccc1)NC(=O)[C@H](Cc1c[nH]cn1)NC(=O)[C@@H](NC(=O)[C@@H](NC(=O)[C@@H]1CCCN1C(=O)[C@H](CC(N)=O)NC(=O)[C@@H](N)CCC(=O)O)C(C)C)C(C)C)C(=O)N[C@H](C(=O)N[C@H](C(=O)N1CCC[C@H]1C(=O)N[C@@H](CCCNC(=N)N)C(=O)O)[C@@H](C)O)C(C)C [(85-99)92A] (H-ENPVVHFAKNIVTPR-OH) .
5.09
